# TESTED_TARGET: T1, Human Siglec-9 (human, UniProt Q9Y336 18-463)
# T1 construct: On transfected CHO cells; also on YTS and KHYG-1 transfectants, primary NK cells and moDC; also called huSiglec-9; CD329
# T1 sequence (Q9Y336 18-463): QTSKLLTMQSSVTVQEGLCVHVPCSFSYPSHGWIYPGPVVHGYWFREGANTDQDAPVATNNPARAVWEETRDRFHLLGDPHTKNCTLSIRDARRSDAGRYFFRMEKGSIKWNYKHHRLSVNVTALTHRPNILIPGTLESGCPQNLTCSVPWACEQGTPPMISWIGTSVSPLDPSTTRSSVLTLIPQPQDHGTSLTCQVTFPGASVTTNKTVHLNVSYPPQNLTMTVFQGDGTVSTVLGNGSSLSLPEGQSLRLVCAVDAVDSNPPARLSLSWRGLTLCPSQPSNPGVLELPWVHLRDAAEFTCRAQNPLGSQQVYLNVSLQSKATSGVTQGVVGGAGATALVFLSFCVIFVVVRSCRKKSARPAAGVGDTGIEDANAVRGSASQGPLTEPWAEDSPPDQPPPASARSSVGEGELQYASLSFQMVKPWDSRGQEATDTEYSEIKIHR
# ASSAY_NAME: flow cytometry, CHO transfectants
MEASURED_PARAMETER: EC50 (µg/mL)
All answers are understood in µg/mL, so give the number only.

Problem: For mAb4 (antibody, human IgG1, V domains shown) VH: DVQLVESGGDLVKPGGSLKLSCAASGFAFSSYDMSWVRQSPEKRLEWIAHIGSGGGNIYYPDTVKGRFTISRDNAKNTLYLQMRSLKSEDTAMYYCARLIFTTGFYGMDYWGQGTSVTVSS VL: DIQMTQTTSSLSASLGDRVTISCRASQDISSYLNWYQQKPDGTIKLLIYYTSRLHSGVPSRFSGSGSGTDYSLTISNLDQDDIATYFCQQGNALPWTFGGGTKLEIK , what is its reported EC50?
Result: 0.28

Problem: Then this binder: mAb3 (antibody, human IgG1, V domains shown) VH: EVQLLETGPGLVKPSQSLSLTCTVTGYSITGGFAWNWIRQFPGNTLEWMGYIGYGGSTSYNPSLNSRISITRDTSKNHFFLQFNSVTTEDSATYYCARGDYLFAYWGQGTLVTVSA VL: DILMTQSPASLSASVGETVSITCRASGNIHNYLAWYLQRQGKSPQLLVYNAKTLADGVPSRFSGTGSGTQFSLKINSLQPEDFGSYYCQHFWSTPRTFGGGTKLEIK
Result: 0.23

Problem: Field entry: mAb2 (antibody, human IgG1, V domains shown) VH: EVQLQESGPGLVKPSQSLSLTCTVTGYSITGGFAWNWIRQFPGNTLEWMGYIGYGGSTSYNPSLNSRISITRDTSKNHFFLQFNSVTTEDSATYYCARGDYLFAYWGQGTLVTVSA VL: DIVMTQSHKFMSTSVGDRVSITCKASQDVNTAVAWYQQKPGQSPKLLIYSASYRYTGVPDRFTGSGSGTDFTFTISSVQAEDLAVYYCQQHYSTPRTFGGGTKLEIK
Result: 0.08
